FYI, the data here is from paper PMC10247784.

For each of the molecules below, state its RLU, fluorescence trace.
TESTED_TARGET: human TAS2R4 (Homo sapiens, UniProt Q9NYW5)
Construct: expressed in transfected cells; host or cells: HEK293T-Gα16gust44
Sequence (Q9NYW5 1-299): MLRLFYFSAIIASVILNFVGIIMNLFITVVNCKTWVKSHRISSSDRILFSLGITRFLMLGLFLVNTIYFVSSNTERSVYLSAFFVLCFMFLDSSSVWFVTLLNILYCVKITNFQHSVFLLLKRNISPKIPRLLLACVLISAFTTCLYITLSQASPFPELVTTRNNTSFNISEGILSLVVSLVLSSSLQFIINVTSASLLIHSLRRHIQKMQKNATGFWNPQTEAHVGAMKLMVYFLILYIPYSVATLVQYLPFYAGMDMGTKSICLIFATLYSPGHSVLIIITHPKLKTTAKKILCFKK
ASSAY_NAME: Calcium imaging assay (FLIPR), HEK293T-Gα16gust44 cells transfected with human TAS2R4; further: test concentration or dose not given here
Type: cell-based
COND: Time (s) 76.781 (TCA, TLCA: 76.782)
Give the quantity in RLU, number only.

Query C[C@H](CCC(=O)NCCS(=O)(=O)O)[C@H]1CC[C@H]2[C@@H]3[C@H](O)C[C@@H]4C[C@H](O)CC[C@]4(C)[C@H]3C[C@H](O)[C@]12C [Taurocholic Acid, taurocholic acid] on human TAS2R4 (Homo sapiens, UniProt Q9NYW5); RLU, fluorescence trace returned: 666.37

Query C[C@H](CCC(=O)O)[C@H]1CC[C@H]2[C@@H]3CC[C@@H]4C[C@H](O)CC[C@]4(C)[C@H]3C[C@H](O)[C@]12C [Deoxycholic Acid, deoxycholic acid] on human TAS2R4 (Homo sapiens, UniProt Q9NYW5); RLU, fluorescence trace returned: 372.212

Query C[C@H](CCC(=O)NCC(=O)O)[C@H]1CC[C@H]2[C@@H]3[C@H](O)C[C@@H]4C[C@H](O)CC[C@]4(C)[C@H]3C[C@H](O)[C@]12C [Glycocholic Acid, glycocholic acid] on human TAS2R4 (Homo sapiens, UniProt Q9NYW5); RLU, fluorescence trace returned: 856.102

====

TESTED_TARGET: human TAS2R4 (Homo sapiens)
Construct: expressed in transfected cells; host or cells: HEK293T-Gα16gust44
ASSAY_NAME: Calcium imaging assay (FLIPR), HEK293T-Gα16gust44 cells transfected with human TAS2R4; further: test concentration or dose not given here
Assay type: cell-based
COND: Time (s) 26.781 (TCA, TLCA: 26.782)
MEASUREMENT_KIND: RLU, fluorescence trace
Entry format: amount then unit.

Query C[C@H](CCC(=O)NCCS(=O)(=O)O)[C@H]1CC[C@H]2[C@@H]3CC[C@@H]4C[C@H](O)CC[C@]4(C)[C@H]3CC[C@]12C on human TAS2R4 (Homo sapiens); RLU, fluorescence trace returned: 24.977 RLU

Query C[C@H](CCC(=O)O)[C@H]1CC[C@H]2[C@@H]3[C@H](O)C[C@@H]4C[C@H](O)CC[C@]4(C)[C@H]3C[C@H](O)[C@]12C on human TAS2R4 (Homo sapiens); RLU, fluorescence trace returned: 53.8077 RLU

Query C[C@H](CCC(=O)NCC(=O)O)[C@H]1CC[C@H]2[C@@H]3[C@H](O)C[C@@H]4C[C@H](O)CC[C@]4(C)[C@H]3C[C@H](O)[C@]12C on human TAS2R4 (Homo sapiens); RLU, fluorescence trace returned: 179.573 RLU

====

TESTED_TARGET: human TAS2R14 (Homo sapiens)
Construct: expressed in transfected cells; host or cells: HEK293T-Gα16gust44
Sequence (Q9NYV8 1-317): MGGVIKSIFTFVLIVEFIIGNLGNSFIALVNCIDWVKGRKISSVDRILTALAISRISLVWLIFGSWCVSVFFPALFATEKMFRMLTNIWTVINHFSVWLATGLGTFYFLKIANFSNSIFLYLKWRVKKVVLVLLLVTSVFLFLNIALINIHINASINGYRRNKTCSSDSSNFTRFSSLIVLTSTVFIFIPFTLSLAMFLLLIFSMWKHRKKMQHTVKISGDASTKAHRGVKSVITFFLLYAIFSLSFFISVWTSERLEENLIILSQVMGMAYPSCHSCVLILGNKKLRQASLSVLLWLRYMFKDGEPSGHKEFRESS
ASSAY_NAME: Calcium imaging assay (FLIPR), HEK293T-Gα16gust44 cells transfected with human TAS2R14
Format: cell-based
COND: TAS2R14 trace; Time (s) 118.797 (Chenodeoxycholic Acid 118.781)
Experimental: This set of bile acids was chosen because of their commercial availability in high purities, their diversity within the class of bile acids and their previous detection and quantitation in human blood. Stock solutions were prepared in DMSO. […] Measured data were negative control corrected by subtracting the signal of the mock-transfected cells and exported to Microsoft Excel using the FLIPR software ScreenWorks 4.2. […]
MEASUREMENT_KIND: RLU (RLU)
Give the quantity in RLU, number only.

# RLU (molecule: C[C@H](CCC(=O)O)[C@H]1CC[C@H]2[C@@H]3[C@H](O)C[C@@H]4C[C@H](O)CC[C@]4(C)[C@H]3CC[C@]12C ) is 521.394

# RLU (molecule: C[C@H](CCC(=O)NCC(=O)O)[C@H]1CC[C@H]2[C@@H]3[C@H](O)C[C@@H]4C[C@H](O)CC[C@]4(C)[C@H]3C[C@H](O)[C@]12C ) is 907.689

# RLU (molecule: C[C@H](CCC(=O)NCCS(=O)(=O)O)[C@H]1CC[C@H]2[C@@H]3[C@H](O)C[C@@H]4C[C@H](O)CC[C@]4(C)[C@H]3C[C@H](O)[C@]12C ) is 1000.54

# RLU (molecule: C[C@H](CCC(=O)NCCS(=O)(=O)O)[C@H]1CC[C@H]2[C@@H]3CC[C@@H]4C[C@H](O)CC[C@]4(C)[C@H]3CC[C@]12C ) is 374.133

# RLU (molecule: C[C@H](CCC(=O)O)[C@H]1CC[C@H]2[C@@H]3[C@H](O)C[C@@H]4C[C@H](O)CC[C@]4(C)[C@H]3C[C@H](O)[C@]12C ) is 1260.33

====

TESTED_TARGET: human TAS2R4 (Homo sapiens, UniProt Q9NYW5)
Construct: expressed in transfected cells; host or cells: HEK293T-Gα16gust44
ASSAY_NAME: Calcium imaging assay (FLIPR), HEK293T-Gα16gust44 cells transfected with human TAS2R4; further: test concentration or dose not given here
Type: cell-based
COND: Time (s) 64.781 (TCA, TLCA: 64.782)
For each record, check the reported RLU, fluorescence trace: if it is below 600 RLU write yes, else write no.

Problem: Identify whether the compound C[C@H](CCC(=O)O)[C@H]1CC[C@H]2[C@@H]3CC[C@@H]4C[C@H](O)CC[C@]4(C)[C@H]3C[C@H](O)[C@]12C [Deoxycholic Acid, deoxycholic acid] records RLU, fluorescence trace below 600 RLU.
Solution: yes

Problem: Identify whether the compound C[C@H](CCC(=O)O)[C@H]1CC[C@H]2[C@@H]3[C@H](O)C[C@@H]4C[C@H](O)CC[C@]4(C)[C@H]3C[C@H](O)[C@]12C [Cholic Acid, cholic acid] records RLU, fluorescence trace below 600 RLU.
Solution: no

Problem: Identify whether the compound C[C@H](CCC(=O)NCCS(=O)(=O)O)[C@H]1CC[C@H]2[C@@H]3[C@H](O)C[C@@H]4C[C@H](O)CC[C@]4(C)[C@H]3C[C@H](O)[C@]12C [Taurocholic Acid, taurocholic acid] records RLU, fluorescence trace below 600 RLU.
Solution: no

Problem: Identify whether the compound C[C@H](CCC(=O)NCC(=O)O)[C@H]1CC[C@H]2[C@@H]3[C@H](O)C[C@@H]4C[C@H](O)CC[C@]4(C)[C@H]3C[C@H](O)[C@]12C [Glycocholic Acid, glycocholic acid] records RLU, fluorescence trace below 600 RLU.
Solution: no

Problem: Identify whether the compound C[C@H](CCC(=O)O)[C@H]1CC[C@H]2[C@@H]3[C@@H](O)C[C@@H]4C[C@H](O)CC[C@]4(C)[C@H]3CC[C@]12C [Ursodeoxycholic Acid, ursodeoxycholic acid] records RLU, fluorescence trace below 600 RLU.
Solution: yes

Problem: Identify whether the compound C[C@H](CCC(=O)NCCS(=O)(=O)O)[C@H]1CC[C@H]2[C@@H]3CC[C@@H]4C[C@H](O)CC[C@]4(C)[C@H]3CC[C@]12C [Taurolithocholic Acid, taurolithocholic acid] records RLU, fluorescence trace below 600 RLU.
Solution: yes

====

TESTED_TARGET: human TAS2R1 (Homo sapiens, UniProt Q9NYW7)
Construct: expressed in transfected cells; host or cells: HEK293T-Gα16gust44
Sequence (Q9NYW7 whole entry): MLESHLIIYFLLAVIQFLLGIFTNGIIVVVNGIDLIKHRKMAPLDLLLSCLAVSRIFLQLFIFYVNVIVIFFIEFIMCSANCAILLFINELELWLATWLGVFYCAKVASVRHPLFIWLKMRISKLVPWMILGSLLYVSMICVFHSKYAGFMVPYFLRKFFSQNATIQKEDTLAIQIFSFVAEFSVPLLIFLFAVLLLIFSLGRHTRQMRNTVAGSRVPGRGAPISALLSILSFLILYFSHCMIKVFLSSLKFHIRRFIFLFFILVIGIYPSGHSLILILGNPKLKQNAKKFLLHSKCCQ
ASSAY_NAME: Calcium imaging assay (FLIPR), HEK293T-Gα16gust44 cells transfected with human TAS2R1
Assay type: cell-based
COND: calcium trace, sheet TAS2R1; Time 311.547 s
MEASUREMENT_KIND: RLU (RLU)
Give the quantity in RLU, number only.

# RLU (compound: C[C@H](CCC(=O)NCCS(=O)(=O)O)[C@H]1CC[C@H]2[C@@H]3CC[C@@H]4C[C@H](O)CC[C@]4(C)[C@H]3CC[C@]12C ) is -208.123

# RLU (compound: C[C@H](CCC(=O)O)[C@H]1CC[C@H]2[C@@H]3CC[C@@H]4C[C@H](O)CC[C@]4(C)[C@H]3C[C@H](O)[C@]12C ) is 132.623

# RLU (compound: C[C@H](CCC(=O)NCCS(=O)(=O)O)[C@H]1CC[C@H]2[C@@H]3[C@H](O)C[C@@H]4C[C@H](O)CC[C@]4(C)[C@H]3C[C@H](O)[C@]12C ) is 2.9951

# RLU (compound: C[C@H](CCC(=O)NCC(=O)O)[C@H]1CC[C@H]2[C@@H]3[C@H](O)C[C@@H]4C[C@H](O)CC[C@]4(C)[C@H]3C[C@H](O)[C@]12C ) is 53.2069
